system: 3T3-L1; assay: Cytotoxicity against mouse 3T3L1 cells assessed as decrease in cell viability at 10 uM after 48 hrs by MTT assay; assay type: cell-based; details: 3t3-l1, 48 h
EXPERIMENTAL ENDPOINT: Activity

Examples with answers:
MOLECULAR STRING	EXPERIMENTAL ENDPOINT	READOUT VALUE
COC(=O)CC[C@@H](C)[C@H]1CC[C@H]2[C@@H]3[C@H](O)C[C@@H]4C[C@@H](NC(=O)c5c(C)noc5C)CC[C@]4(C)[C@H]3CC[C@]12C	Activity	Non-Toxic
Cc1noc(C)c1C(=O)N[C@H]1CC[C@@]2(C)[C@@H](C1)C[C@@H](O)[C@@H]1[C@@H]2CC[C@]2(C)[C@@H]([C@H](C)CCC(=O)Nc3ccc(F)cc3)CC[C@@H]12	Activity	Non-Toxic
Cc1noc(C)c1C(=O)N[C@H]1CC[C@@]2(C)[C@@H](C1)C[C@@H](O)[C@@H]1[C@@H]2CC[C@]2(C)[C@@H]([C@H](C)CCC(=O)Nc3ccc(Cl)cc3)CC[C@@H]12	Activity	Non-Toxic
CNC(=O)CC[C@@H](C)[C@H]1CC[C@H]2[C@@H]3[C@H](O)C[C@@H]4C[C@@H](NC(=O)c5c(C)noc5C)CC[C@]4(C)[C@H]3CC[C@]12C	Activity	Non-Toxic

We next turn to a different compound, shown below.
Lookup: Complete the entry with Activity for Cc1noc(C)c1C(=O)N[C@H]1CC[C@@]2(C)[C@@H](C1)C[C@@H](O)[C@@H]1[C@@H]2CC[C@]2(C)[C@@H]([C@H](C)CCC(N)=O)CC[C@@H]12
Found: Non-Toxic
